B1: Max-interacting protein 1, residues 70 to 120; numbered along this chain, P50539 (parent)
chain: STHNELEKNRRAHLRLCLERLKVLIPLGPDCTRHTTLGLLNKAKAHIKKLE

Variants of: B1
assayInfo: abundance fitness (aPCA) (normalised: wild type 0, dead -1); higher = more abundant; growth selection in yeast, the domain comes from the species named
assayConditions: Homo sapiens
outcomeMeasure: abundance fitness
Format: numeric value only, no unit, no commentary.

Quickly give me recorded abundance fitness for T32R
-0.137

Next:
Could you please provide reported abundance fitness for L27M ? Thanks!
-0.031

Give the reported value of abundance fitness for this record: H46I
-0.26

Output measured abundance fitness for this item: C31F
0.007

Look up and report measured abundance fitness for this entry: L21W
-0.594

State its abundance fitness for this variant: K48I
-0.351

State its abundance fitness for this variant: R11W
-0.257

Find the measured abundance fitness of T2G and report it.
-0.69

Supply measured abundance fitness of H3Y in your reply.
-0.078

Annotate the variant S1M with its measured abundance fitness.
-0.797

State, in one line, measured abundance fitness of L40N
-0.584

Origin of measurements: the Human Domainome abundance scans (Beltran et al. 2025)
